Data credit: ChEMBL document CHEMBL4831540

target: UniProt:P08684
assay-details: Inhibition of CYP3A4 in human liver microsomes assessed as midazolam 1'-hyrozylation reaction incubated for 30 mins in presence of NADP by LC-MS/MS analysis
Type: ADME
reported-endpoint: IC50

Query :: What value of IC50 has been recorded for this entry: "CCc1nc(-c2ccc3c(c2)CC[C@H]3NC(=O)c2cnn(C)c2)no1"
Result :: > 100 µM

---

assay-details: Clearance in Sprague-Dawley rat at 0.5 mg/kg
Format: ADME, organism-based
recorded-conditions: in vivo
reported-endpoint: clearance (mL/min/kg)
Numbers only, in mL/min/kg.

Query :: What value of clearance has been recorded for this entry: "CCc1nc(-c2ccc3c(c2)CC[C@H]3NC(=O)c2cnn(C)c2)no1"
Result :: 2

---

target: UniProtKB P08684
assay-details: Inhibition of CYP3A4 in human liver microsomes incubated for 30 mins in presence of NADP by LC-MS/MS analysis
pIC50: −log10 of the molar value.
reported-endpoint: pIC50

Query :: What value of pIC50 has been recorded for this entry: "CCc1nc(-c2ccc3c(c2)CC[C@H]3NC(=O)c2cnn(C)c2)no1"
Result :: < 4.00

---

assay-details: Plasma protein binding in human assessed as unbound fraction
Assay type: ADME, cell-free
reported-endpoint: fraction unbound
Numbers only.

Query :: What value of fraction unbound has been recorded for this entry: "Cn1cc(C(=O)N[C@@H]2CCc3cc(-c4noc(C(F)F)n4)ccc32)cn1"
Result :: 0.057

State the recorded fraction unbound for every item in the following list.
1. Cc1nc(-c2ccc3c(c2)CC[C@H]3NC(=O)c2cnn(C)c2)no1
2. COCc1nc(-c2ccc3c(c2)CC[C@H]3NC(=O)c2cnn(C)c2)no1
3. CCc1nc(-c2ccc3c(c2)CC[C@H]3NC(=O)c2cnn(C)c2)no1 [AFICAMTEN]
4. Cn1cc(C(=O)N[C@@H]2CCc3cc(-c4noc(C5CC5)n4)ccc32)cn1

Result ::
1: 0.14; 2: 0.12; 3: 0.095; 4: 0.056

---

assay-details: Plasma protein binding in rat plasma assessed as unbound concentration at 5 uM incubated for 6 hrs by HPLC analysis
Assay type: ADME, cell-free
reported-endpoint: fraction unbound at 6 h, 5 µM

Query :: What value of fraction unbound at 6 h, 5 µM has been recorded for this entry: Cc1cc(C(=O)NC2CCc3cc(-c4noc(C)n4)ccc32)ccn1 (racemic)
Result :: 0.097

State the recorded fraction unbound at 6 h, 5 µM for every item in the following list.
1. COCc1nc(-c2ccc3c(c2)CC[C@H]3NC(=O)c2cnn(C)c2)no1
2. Cc1cc(C(=O)NC2CCc3cc(-c4noc(C)n4)ccc32)on1 (racemic)
3. Cn1nnc(C(=O)N[C@@H]2CCc3cc(-c4noc(C5CC5)n4)ccc32)n1
4. Cc1cc(C(=O)N[C@@H]2CCc3cc(-c4noc(C5CC5)n4)ccc32)ccn1

Result ::
1: 0.082; 2: 0.072; 3: 0.12; 4: 0.049

---

assay-details: Plasma protein binding in rat plasma assessed as unbound concentration at 5 uM incubated for 6 hrs by HPLC analysis
Format: ADME, cell-free
Consider the following compounds; for each one, report its fraction unbound at 6 h, 5 µM.
Numbers only.

Sample records with fraction unbound at 6 h, 5 µM:
Query :: What value of fraction unbound at 6 h, 5 µM has been recorded for this entry: Cc1nc(-c2ccc3c(c2)CCC3NC(=O)c2nnn(C)n2)no1 (racemic)
Result :: 0.19

Query :: Check "CCc1nc(-c2ccc3c(c2)CC[C@H]3NC(=O)c2cc(C)ncn2)no1" too.
Result :: 0.092

Query :: Check "CCc1nc(-c2ccc3c(c2)CC[C@H]3NC(=O)c2cn[nH]c2)no1" too.
Result :: 0.2

State the recorded fraction unbound at 6 h, 5 µM for every item in the following list.
1. Cc1nc(-c2ccc3c(c2)CCC3NC(=O)c2oncc2C)no1 (racemic)
2. CCc1nc(-c2ccc3c(c2)CC[C@H]3NC(=O)c2cnn(C)c2)no1 [AFICAMTEN]
3. CCc1nc(-c2ccc3c(c2)CC[C@H]3NC(=O)c2nnn(C)n2)no1
4. CCc1nc(-c2ccc3c(c2)CC[C@H]3NC(=O)c2cnc(C)o2)no1
5. CCc1nc(-c2ccc3c(c2)CC[C@H]3NC(=O)c2ocnc2C)no1

Result ::
1. 0.064
2. 0.018
3. 0.29
4. 0.18
5. 0.1
